# measured.target: Glucose transporter (Leishmania mexicana) (UniProt O61059)
# test.details: ST_JUDE_LEISH: Cytotoxicity at 2uM final concentration against transgenic Leishmania Mexicana promastigotes LmGT2 that are glucose transport deficient and complemented with the L. Mexicana glucose transporter 2. Activity is measured by DNA content using SYBR green in vitro
# Assay type: functional
readout.label: inhibition (%)
# number only, unit % dropped from output

{"columns": ["compound", "inhibition [%]"],
 "data": [
  ["Cc1ccc(O)cc1Nc1ccnc2cc(-c3csc(CN(C)CCN(C)C)n3)ccc12", 0.38],
  ["O=C(/C=C/c1ccc(Cl)c(Cl)c1)NCCCCCCN1CCCN(C(=O)Nc2ccc(F)c(F)c2)CC1", 2.39],
  ["O=C(/C=C/c1ccc(Cl)c(Cl)c1)NCCCCCN1CC[C@H](NC(=O)/C=C/c2ccccc2)C1", -0.08]
]}

Query: Give inhibition for the following compound: Nc1nc(N)c2cc(S(=O)(=O)c3ccc4ccccc4c3)ccc2n1
Reply: 8.89

Query: Identify inhibition associated with the compound N#Cc1cc([N+](=O)[O-])ccc1-n1nc(C(N)=O)n(Cc2cccc(F)c2)c1=S
Reply: 5.66

Query: Query inhibition for COc1ccc2nccc(NC(=O)C3(O)CCC(NCc4ccc5c(c4)NCCS5)CC3)c2n1 (centres undefined)
Reply: 7.11

Query: Tell me its inhibition given Oc1ccc(CCNCc2ccc(OCc3ccccc3)c(OCc3ccccc3)c2)cc1 as the entry.
Reply: 68.5

Query: Name the recorded inhibition of the compound listed here: O=C(NC1CCC(N2CCCC(OCc3ccccc3)C2)CC1)c1cc2ccccc2[nH]1 (centres undefined)
Reply: -1.89

Query: Return value of inhibition for input CC(C)N1CCN(C(CN2CCN(CCCOc3cccc4ccccc34)CC2)c2ccc(F)cc2)CC1 (centres undefined) , no commentary.
Reply: 4.19

Query: Look up and report measured inhibition for this entry: Cc1cc2c(cc1C(F)(F)F)N(C(=O)Nc1cccc(C(=O)NC3CCN(Cc4ccccc4)CC3)c1)CC2
Reply: 3.16

Query: Please supply the value of reported inhibition for the item CCNc1cc(C)nc(Nc2ccc(NC(=O)Cc3ccc(OC)cc3)cc2)n1
Reply: 4.74

Query: Supply recorded inhibition for CN(C)CCOc1cc(NC(=O)/C=C/c2cccc3ccccc23)ccc1I here.
Reply: 8.23

Query: Return the recorded inhibition value; entry: O=C(Nc1ccc(Cn2ncc(N3CCCNCC3)c(Cl)c2=O)cc1)Nc1ccc(SC(F)(F)F)cc1
Reply: -1.22

* * *

# measured.target: Glucose transporter (Leishmania mexicana)
# test.details: ST_JUDE_LEISH: Cytotoxicity at 2uM final concentration against transgenic Leishmania Mexicana promastigotes LmGT2 that are glucose transport deficient and complemented with the L. Mexicana glucose transporter 2. Activity is measured by DNA content using SYBR green in vitro
# Assay type: functional
readout.label: inhibition (%)
Entry rule: numbers only, all in %.

{"columns": ["compound", "measured.target", "readout.label", "recorded.value"],
 "data": [
  ["CCN(CC)c1ccc(C(c2ccc(N(CC)CC)cc2)c2ccc([N+](=O)[O-])cc2)cc1", "Glucose transporter (Leishmania mexicana)", "inhibition", 8.28],
  ["CCCCCCCCNCC(O)c1cc(-c2ccc(Cl)cc2)nc2cc(C)ccc12 (stereo not given)", "Glucose transporter (Leishmania mexicana)", "inhibition", -1.09],
  ["O=C(NCCCCN1CCC(c2ccc3c(c2O)CCCC3)CC1)c1ccc(-c2ccc(Cl)cc2)cc1", "Glucose transporter (Leishmania mexicana)", "inhibition", 2.37],
  ["CC(=O)c1sc(Cc2nc3ccccc3s2)nc1C", "Glucose transporter (Leishmania mexicana)", "inhibition", -1.55]
]}

For the next question, use this compound.
Query: Entry Cc1cccc2nc(-c3cccc(-c4cccc(NC(=O)CC5NC(=O)c6ccccc65)c4)c3)[nH]c12 (stereo not given) needs its inhibition filled in; supply it.
Reply: 3.21

The measurements presented in this section are drawn from ChEMBL document CHEMBL3433997.
